Origin of values: paper PMC7914648

- procedure_text: Tissue distribution of An2-PAPTP and metabolites (liver, spleen, kidneys, heart) after i.v. injection
- Assay type: in vivo, mouse
- test_context: after An2-PAPTP i.v.; heart; mean ± SEM, N = 5
attribute_measured: metabolite in heart, 15 min (% administered dose)
Only the number, expressed in % administered dose, is required.

Worked examples, 3 molecules total:
1. CC[C@H](C)[C@H](NC(=O)Oc1ccc(CCCOc2ccc([P+](CCCc3ccc(OCCCCOc4c5ccoc5cc5oc(=O)ccc45)cc3)(c3ccccc3)c3ccccc3)cc2)cc1)C(=O)N[C@H](C(=O)N[C@@H](Cc1ccccc1)C(=O)O)[C@@H](C)O: 0
2. O=C([O-])C(F)(F)F.O=c1ccc2c(OCCCCOc3ccc(CCC[P+](c4ccccc4)(c4ccccc4)c4ccc(OCCCc5ccc(O)cc5)cc4)cc3)c3ccoc3cc2o1: 0.013
3. CCC(C)C(NC(=O)Oc1ccc(CCCOc2ccc([P+](CCCc3ccc(OCCCCOc4c5ccoc5cc5oc(=O)ccc45)cc3)(c3ccccc3)c3ccccc3)cc2)cc1)C(=O)O.O=C([O-])C(F)(F)F (stereo not shown): 0

# ---- query molecule ----
Any idea what its metabolite in heart, 15 min is? The molecule is CC[C@H](C)[C@H](NC(=O)Oc1ccc(CCCOc2ccc([P+](CCCc3ccc(OCCCCOc4c5ccoc5cc5oc(=O)ccc45)cc3)(c3ccccc3)c3ccccc3)cc2)cc1)C(=O)N[C@H](C(=O)O)[C@@H](C)O
0

---

- procedure_text: Tissue distribution of An2-PAPTP and metabolites (liver, spleen, kidneys, heart) after i.v. injection
- Assay type: in vivo, mouse
- test_context: after An2-PAPTP 5 µmoles/kg bw i.v.; heart; mean ± SEM, N = 5
attribute_measured: metabolite in heart, 15 min
Number first, unit second.

Worked examples, 2 compounds total:
1. CC[C@H](C)[C@H](NC(=O)Oc1ccc(CCCOc2ccc([P+](CCCc3ccc(OCCCCOc4c5ccoc5cc5oc(=O)ccc45)cc3)(c3ccccc3)c3ccccc3)cc2)cc1)C(=O)N[C@H](C(=O)O)[C@@H](C)O: 0 nmol/g fresh tissue
2. CC[C@H](C)[C@H](NC(=O)Oc1ccc(CCCOc2ccc([P+](CCCc3ccc(OCCCCOc4c5ccoc5cc5oc(=O)ccc45)cc3)(c3ccccc3)c3ccccc3)cc2)cc1)C(=O)N[C@H](C(=O)N[C@@H](Cc1ccccc1)C(=O)O)[C@@H](C)O: 0 nmol/g fresh tissue

Any idea what its metabolite in heart, 15 min is? The compound is CCC(C)C(NC(=O)Oc1ccc(CCCOc2ccc([P+](CCCc3ccc(OCCCCOc4c5ccoc5cc5oc(=O)ccc45)cc3)(c3ccccc3)c3ccccc3)cc2)cc1)C(=O)O.O=C([O-])C(F)(F)F (stereo not shown)
0 nmol/g fresh tissue

Any idea what its metabolite in heart, 15 min is? The compound is O=C([O-])C(F)(F)F.O=c1ccc2c(OCCCCOc3ccc(CCC[P+](c4ccccc4)(c4ccccc4)c4ccc(OCCCc5ccc(O)cc5)cc4)cc3)c3ccoc3cc2o1
0.12 ± 0.06 nmol/g fresh tissue

---

- procedure_text: Tissue distribution of An2-PAPTP and metabolites (liver, spleen, kidneys, heart) after i.v. injection
- Type: in vivo, mouse
- test_context: after An2-PAPTP 5 µmoles/kg bw i.v.; liver; 15 min; mean ± SEM, n = 5
attribute_measured: metabolite in liver, 15 min (% administered dose)
Only the number, expressed in % administered dose, is required.

1. CC[C@H](C)[C@H](NC(=O)Oc1ccc(CCCOc2ccc([P+](CCCc3ccc(OCCCCOc4c5ccoc5cc5oc(=O)ccc45)cc3)(c3ccccc3)c3ccccc3)cc2)cc1)C(=O)N[C@H](C(=O)O)[C@@H](C)O: 2.8
2. O=C([O-])C(F)(F)F.O=c1ccc2c(OCCCCOc3ccc(CCC[P+](c4ccccc4)(c4ccccc4)c4ccc(OCCCc5ccc(O)cc5)cc4)cc3)c3ccoc3cc2o1: 1.2
3. CC[C@H](C)[C@H](NC(=O)Oc1ccc(CCCOc2ccc([P+](CCCc3ccc(OCCCCOc4c5ccoc5cc5oc(=O)ccc45)cc3)(c3ccccc3)c3ccccc3)cc2)cc1)C(=O)N[C@H](C(=O)N[C@@H](Cc1ccccc1)C(=O)O)[C@@H](C)O: 1.7

# ---- query molecule ----
Any idea what its metabolite in liver, 15 min is? The molecule is CCC(C)C(NC(=O)Oc1ccc(CCCOc2ccc([P+](CCCc3ccc(OCCCCOc4c5ccoc5cc5oc(=O)ccc45)cc3)(c3ccccc3)c3ccccc3)cc2)cc1)C(=O)O.O=C([O-])C(F)(F)F (stereo not shown)
0.4
